Assign IC50 to each entry below.
Molecular target: VLA-4 (Homo sapiens, UniProt P05556+P13612)
Construct: host or cells: Jurkat clone E6-1
Sequence (P13612 34-1032): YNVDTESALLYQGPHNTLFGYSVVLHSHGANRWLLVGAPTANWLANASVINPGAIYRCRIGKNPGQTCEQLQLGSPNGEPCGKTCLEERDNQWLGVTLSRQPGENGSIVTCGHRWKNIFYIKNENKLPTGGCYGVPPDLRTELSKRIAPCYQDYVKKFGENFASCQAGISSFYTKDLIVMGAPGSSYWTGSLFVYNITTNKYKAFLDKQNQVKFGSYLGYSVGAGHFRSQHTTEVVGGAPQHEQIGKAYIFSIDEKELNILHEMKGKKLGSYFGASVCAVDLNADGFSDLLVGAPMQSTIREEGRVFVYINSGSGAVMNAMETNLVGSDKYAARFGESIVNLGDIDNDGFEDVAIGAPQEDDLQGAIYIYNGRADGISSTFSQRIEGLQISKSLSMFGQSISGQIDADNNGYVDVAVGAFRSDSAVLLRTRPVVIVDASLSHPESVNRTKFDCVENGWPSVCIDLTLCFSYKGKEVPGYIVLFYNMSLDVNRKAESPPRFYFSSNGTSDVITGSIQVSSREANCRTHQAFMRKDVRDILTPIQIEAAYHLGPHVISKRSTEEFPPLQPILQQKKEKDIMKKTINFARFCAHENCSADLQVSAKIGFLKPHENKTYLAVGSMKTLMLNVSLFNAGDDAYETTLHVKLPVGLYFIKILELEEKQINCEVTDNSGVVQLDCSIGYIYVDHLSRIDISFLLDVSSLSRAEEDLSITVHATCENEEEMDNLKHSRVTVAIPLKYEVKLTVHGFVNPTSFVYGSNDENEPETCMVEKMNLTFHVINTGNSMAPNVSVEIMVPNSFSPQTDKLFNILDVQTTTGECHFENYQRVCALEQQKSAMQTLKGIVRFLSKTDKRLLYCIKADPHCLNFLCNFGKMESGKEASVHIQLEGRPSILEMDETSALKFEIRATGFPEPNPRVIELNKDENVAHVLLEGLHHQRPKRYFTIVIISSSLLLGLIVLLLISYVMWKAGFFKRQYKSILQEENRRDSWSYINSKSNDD
Sequence (P05556 21-798): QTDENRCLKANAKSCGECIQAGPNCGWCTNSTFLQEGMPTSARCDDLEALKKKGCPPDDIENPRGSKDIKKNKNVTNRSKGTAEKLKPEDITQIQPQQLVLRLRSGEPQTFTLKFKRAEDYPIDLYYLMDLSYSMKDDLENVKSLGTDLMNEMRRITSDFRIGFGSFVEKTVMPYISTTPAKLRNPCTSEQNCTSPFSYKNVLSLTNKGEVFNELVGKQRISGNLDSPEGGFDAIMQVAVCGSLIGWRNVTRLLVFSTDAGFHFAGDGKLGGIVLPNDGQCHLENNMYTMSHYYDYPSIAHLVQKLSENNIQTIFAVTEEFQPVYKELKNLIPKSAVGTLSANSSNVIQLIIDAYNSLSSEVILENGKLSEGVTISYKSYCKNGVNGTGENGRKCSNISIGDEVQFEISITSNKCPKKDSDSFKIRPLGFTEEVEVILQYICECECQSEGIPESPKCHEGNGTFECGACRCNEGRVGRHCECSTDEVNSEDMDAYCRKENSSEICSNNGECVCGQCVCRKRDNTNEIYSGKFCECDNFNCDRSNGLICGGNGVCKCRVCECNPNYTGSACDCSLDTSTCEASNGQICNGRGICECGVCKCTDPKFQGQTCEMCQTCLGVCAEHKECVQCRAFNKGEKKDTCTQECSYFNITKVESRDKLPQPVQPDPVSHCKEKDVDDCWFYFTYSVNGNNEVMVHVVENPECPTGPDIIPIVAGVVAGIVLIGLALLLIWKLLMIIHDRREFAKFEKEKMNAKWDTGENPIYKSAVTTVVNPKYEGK
Assay: Adhesion of Jurkat cells to immobilized VCAM-1 (domains 1-3)
Assay type: cell-based
Details: adhesion of CFSE-labeled Jurkat cells to recombinant human VCAM-1 (domains 1-3) coated plates; compounds as yielded by solid phase synthesis, purity about 40-90%; read-out: IC50

Field IC50 (system: VLA-4 (Homo sapiens, UniProt P05556+P13612)) for entry O=C(N[C@@H](Cc1ccc(-c2cc(Cl)ccc2Cl)cc1)C(=O)O)C1CCCN(S(=O)(=O)Cc2ccccc2)C1 (some centres unmarked) = ≤ 0.5 µM

Field IC50 (system: VLA-4 (Homo sapiens, UniProt P05556+P13612)) for entry O=C(N[C@@H](Cc1ccc(NC(=O)N2CCN(c3ccccc3)CC2)cc1)C(=O)O)C1CCCN(C(=O)c2ccc(OC(F)(F)F)cc2)C1 (some centres unmarked) = 2 to 10 µM

Field IC50 (system: VLA-4 (Homo sapiens, UniProt P05556+P13612)) for entry CN1CCN(c2ncnc(N3CCCC(C(=O)N[C@@H](Cc4ccc(NC(=O)N5CCc6ccccc6C5)cc4)C(=O)O)C3)c2F)CC1 (some centres unmarked) = 0.5 to 2 µM

Field IC50 (system: VLA-4 (Homo sapiens, UniProt P05556+P13612)) for entry O=C(N[C@@H](Cc1ccc(NC(=O)N2CCOCC2)cc1)C(=O)O)C1CCCN(c2ncnc(N3CCCCCC3)c2F)C1 (some centres unmarked) = 0.5 to 2 µM

Field IC50 (system: VLA-4 (Homo sapiens, UniProt P05556+P13612)) for entry COC(=O)c1ccccc1S(=O)(=O)N1CCCC(C(=O)N[C@@H](Cc2ccc(-c3ccccc3C)cc2)C(=O)O)C1 (some centres unmarked) = 2 to 10 µM

Field IC50 (system: VLA-4 (Homo sapiens, UniProt P05556+P13612)) for entry CN1CCN(C(=O)Nc2ccc(C[C@H](NC(=O)C3CCCN(c4ncnc(NCC5CCCCC5)c4F)C3)C(=O)O)cc2)CC1 (some centres unmarked) = 2 to 10 µM

Field IC50 (system: VLA-4 (Homo sapiens, UniProt P05556+P13612)) for entry O=C(N[C@@H](Cc1ccc(NC(=O)N2CCN(c3ccccc3)CC2)cc1)C(=O)O)C1CCCN(c2ncnc(NCCc3ccccc3)c2F)C1 (some centres unmarked) = 2 to 10 µM

Field IC50 (system: VLA-4 (Homo sapiens, UniProt P05556+P13612)) for entry COc1ccccc1C(=O)N1CCCC(C(=O)N[C@@H](Cc2ccc(-c3ccccc3C)cc2)C(=O)O)C1 (some centres unmarked) = 0.5 to 2 µM

Field IC50 (system: VLA-4 (Homo sapiens, UniProt P05556+P13612)) for entry CN1CCN(C(=O)Nc2ccc(C[C@H](NC(=O)C3CCCN(c4ncnc(NCc5ccccc5)c4F)C3)C(=O)O)cc2)CC1 (some centres unmarked) = 0.5 to 2 µM

Field IC50 (system: VLA-4 (Homo sapiens, UniProt P05556+P13612)) for entry CN1CCN(C(=O)Nc2ccc(C[C@H](NC(=O)C3CCCN(c4ncnc(NCCc5ccccc5)c4F)C3)C(=O)O)cc2)CC1 (some centres unmarked) = 0.5 to 2 µM

Field IC50 (system: VLA-4 (Homo sapiens, UniProt P05556+P13612)) for entry COc1ccc(CCNc2ncnc(N3CCCC(C(=O)N[C@@H](Cc4ccc(NC(=O)N5CCN(C)CC5)cc4)C(=O)O)C3)c2F)cc1 (some centres unmarked) = 0.5 to 2 µM

Field IC50 (system: VLA-4 (Homo sapiens, UniProt P05556+P13612)) for entry COc1ccc(S(=O)(=O)N2CCCC(C(=O)N[C@@H](Cc3ccc(NC(=O)N4CCN(C(c5ccccc5)c5ccccc5)CC4)cc3)C(=O)O)C2)cc1OC (some centres unmarked) = 0.5 to 2 µM

Field IC50 (system: VLA-4 (Homo sapiens, UniProt P05556+P13612)) for entry COc1ccccc1C(=O)N1CCCC(C(=O)N[C@@H](Cc2ccc(-c3ccc(Cl)cc3Cl)cc2)C(=O)O)C1 (some centres unmarked) = 2 to 10 µM

Field IC50 (system: VLA-4 (Homo sapiens, UniProt P05556+P13612)) for entry COc1ccccc1NC(=O)N1CCCC(C(=O)N[C@@H](Cc2ccc(NC(=O)N3CCOCC3)cc2)C(=O)O)C1 (some centres unmarked) = 0.5 to 2 µM

* * *

Molecular target: VLA-4 (Homo sapiens, UniProt P05556+P13612)
Construct: host or cells: Jurkat clone E6-1
Assay: Adhesion of Jurkat cells to immobilized VCAM-1 (domains 1-3)
Format: cell-based
Set-up: scale not given here
Conditions: adhesion of CFSE-labeled Jurkat cells to recombinant human VCAM-1 (domains 1-3) coated plates; compounds as yielded by solid phase synthesis, purity about 40-90%
recorded endpoint: IC50

- molecule: "Cc1ccc(-c2ccc(C[C@H](NC(=O)C3CCCN(c4ncnc(N5CCNCC5)c4F)C3)C(=O)O)cc2)cc1 (stereo partly shown) [Example 2.9]"
  system tested: "VLA-4 (Homo sapiens, UniProt P05556+P13612)"
  value: "B-C"
- molecule: "COc1ccccc1-c1ccc(C[C@H](NC(=O)C2CCCN(c3ncnc(NC4Cc5ccccc5C4)c3F)C2)C(=O)O)cc1 (stereo partly shown) [Example 2.56]"
  system tested: "VLA-4 (Homo sapiens, UniProt P05556+P13612)"
  value: "B-C"
- molecule: "Cc1ccccc1-c1ccc(C[C@H](NC(=O)C2CCCN(c3ncnc(N(C)Cc4ccccc4)c3F)C2)C(=O)O)cc1 (stereo partly shown) [Example 2.28]"
  system tested: "VLA-4 (Homo sapiens, UniProt P05556+P13612)"
  value: "C-D"
- molecule: "O=C(N[C@@H](Cc1ccc(-c2ccc(Cl)cc2Cl)cc1)C(=O)O)C1CCCN(C(=O)C2CCCCC2)C1 (stereo partly shown) [Example 1.44]"
  system tested: "VLA-4 (Homo sapiens, UniProt P05556+P13612)"
  value: "C-D"

* * *

Target: VLA-4 (Homo sapiens, UniProt P05556+P13612)
Construct: host or cells: Jurkat clone E6-1
Test: Adhesion of Jurkat cells to immobilized VCAM-1 (domains 1-3)
Format: cell-based
Conditions: adhesion of CFSE-labeled Jurkat cells to recombinant human VCAM-1 (domains 1-3) coated plates; compounds as yielded by solid phase synthesis, purity about 40-90%; read-out: IC50
pIC50: −log10 of the molar value.
recorded endpoint: pIC50

Given item O=C(N[C@@H](Cc1ccc(-c2cc(Cl)ccc2Cl)cc1)C(=O)O)C1CCCN(c2ncnc(NCCN3CCCC3)c2F)C1 (stereo partly drawn) [Example 2.39] , the value recorded as its pIC50 is 5.70 to 6.30

Given item CN1CCN(C(=O)Nc2ccc(C[C@H](NC(=O)C3CCCN(c4ncnc(NCC(c5ccccc5)c5ccccc5)c4F)C3)C(=O)O)cc2)CC1 (stereo partly drawn) [Example 5.18] , the value recorded as its pIC50 is 5.70 to 6.30

Given item O=C(N[C@@H](Cc1ccc(NC(=O)N2CCc3ccccc3C2)cc1)C(=O)O)C1CCCN(C(=O)C2CCCCC2)C1 (stereo partly drawn) [Example 4.53] , the value recorded as its pIC50 is 5.70 to 6.30

Given item O=C(N[C@@H](Cc1ccc(NC(=O)N2CCOCC2)cc1)C(=O)O)C1CCCN(S(=O)(=O)c2cc(Cl)cc(Cl)c2)C1 (stereo partly drawn) [Example 4.29] , the value recorded as its pIC50 is ≥ 6.30

Given item COCCNc1ncnc(N2CCCC(C(=O)N[C@@H](Cc3ccc(NC(=O)N4CCc5ccccc5C4)cc3)C(=O)O)C2)c1F (stereo partly drawn) [Example 5.16] , the value recorded as its pIC50 is 5.00 to 5.70

Given item CN1CCN(C(=O)Nc2ccc(C[C@H](NC(=O)C3CCCN(C(=O)c4ccccc4F)C3)C(=O)O)cc2)CC1 (stereo partly drawn) [Example 4.51] , the value recorded as its pIC50 is ≥ 6.30

* * *

Biological target: VLA-4 (Homo sapiens, UniProt P05556+P13612)
Construct: host or cells: Jurkat clone E6-1
Assay: Adhesion of Jurkat cells to immobilized VCAM-1 (domains 1-3)
Type: cell-based
Parameters: scale not given here
Details: adhesion of CFSE-labeled Jurkat cells to recombinant human VCAM-1 (domains 1-3) coated plates; compounds as yielded by solid phase synthesis, purity about 40-90%
recorded endpoint: IC50

Completed entries (count: 5):
- molecule: "Cc1ccccc1-c1ccc(C[C@H](NC(=O)C2CCCN(c3ncnc(NC4CCCCC4)c3F)C2)C(=O)O)cc1 (some centres unmarked) [Example 2.25]"
  value: "C-D"
- molecule: "O=C(N[C@@H](Cc1ccc(-c2ccccc2)cc1)C(=O)O)C1CCCN(S(=O)(=O)c2cc(Cl)cc(Cl)c2)C1 (some centres unmarked) [Example 1.64]"
  value: "C-D"
- molecule: "Cc1ccc(-c2ccc(C[C@H](NC(=O)C3CCCN(C(=O)C4CCCCC4)C3)C(=O)O)cc2)cc1 (some centres unmarked) [Example 1.21]"
  value: "C-D"
- molecule: "O=C(N[C@@H](Cc1ccc(-c2ccc(Cl)c(Cl)c2)cc1)C(=O)O)C1CCCN(c2ncnc(N3CCOCC3)c2F)C1 (some centres unmarked) [Example 2.44]"
  value: "C-D"
- molecule: "COc1ccc(-c2ccc(C[C@H](NC(=O)C3CCCN(S(=O)(=O)c4ccccc4C(F)(F)F)C3)C(=O)O)cc2)cc1 (some centres unmarked) [Example 1.80]"
  value: "C-D"

Given item O=C(N[C@@H](Cc1ccc(-c2cc(Cl)ccc2Cl)cc1)C(=O)O)C1CCCN(C(=O)Cc2ccccc2)C1 (some centres unmarked) [Example 1.49] , the value recorded as its IC50 is C-D

Given item COc1ccc(-c2ccc(C[C@H](NC(=O)C3CCCN(S(=O)(=O)Cc4ccccc4)C3)C(=O)O)cc2)cc1 (some centres unmarked) [Example 1.82] , the value recorded as its IC50 is C-D

Measured values drawn from patent US6794386B2 for this set.
